The measured values listed here are drawn from patent US12479895B2.

Test system: ER stressed SCG neurons
test name: Survival of tunicamycin-treated (ER stressed) SCG sympathetic neurons after microinjection
Assay type: cell-based, mice
applied conditions: Table 1B (FIG. 16), exp1; microinjected into cytoplasm, tunicamycin 2 μM, counted after 3 days; CDNF (400)
measure name: survived neurons as % compared to neurons grown in the presence of NGF
Answer as a quantity: numeral, then unit.

These recorded examples may help you get a feel for the data.
INSERT INTO measurements (biosequence, reported_measurement) VALUES
  ('TLDLASVDLRKMRVAELKQILHSWGEESRACAEKTDYVNLIQELAPKYA (C-CDNF peptide with single amino acid substitution) [pep9]', '41.23 % NGF'),
  ('TLDLASVDLRKMRVAELKQILHSWGEECRACAE (listed as Homo sapiens) [pep15]', '70.17 % NGF'),
  ('TLDLASVDLRKMRVAEPKQILHSWGEECRACAEKTDYVNLIQEPAPKYA (Mutated C-CDNF peptide) [pep14]', '55.76 % NGF');

// for each sequence below, give its survived neurons as % compared to neurons grown in the presence of NGF
1. RVAELKQILHSWGEECRACAEKTDYVNLIQELAPKYA (listed as Homo sapiens) [pep8]
2. TLDLASVDLRKMRVAELKQILHSWGEECRASAEKTDYVNLIQELAPKYA (C-CDNF peptide with single amino acid substitution) [pep10]
3. TLDLASVDLRKMRVAELKQILHSWGEECRACAEKTDYVNLIQEPAPKYA (Mutated C-CDNF peptide) [pep13]
4. TLDLASVDLRKMRVAEPKQILHSWGEECRACAEKTDYVNLIQELAPKYA (Mutated C-CDNF peptide) [pep12]

["77.94 % NGF", "42.46 % NGF", "77.41 % NGF", "86.74 % NGF"]

Please give the measured survived neurons as % compared to neurons grown in the presence of NGF for this sequence: TLDLASVDLRKMRVAELKQILHSWGEECRARACAEKTDYVNLIQELAPKYA (Mutated C-CDNF peptide) [pep11]
46.25 % NGF

###

Test system: ER stressed SCG neurons
test name: Survival of tunicamycin-treated (ER stressed) SCG sympathetic neurons after microinjection
Format: cell-based, mice
applied conditions: Table 1A (FIG. 14), exp1; microinjected into cytoplasm, tunicamycin 2 μM, counted after 3 days; CDNF (400)
So I've got a bunch of sequences here, and I need their survived neurons as % compared to neurons grown in the presence of NGF values.
Answers are plain numbers, in % NGF.

These recorded examples may help you get a feel for the data.
INSERT INTO assay_data (biosequence, reported_measurement) VALUES
  ('TLDLASVDLRKMRVAELKQILHSWGEECRACAEKTDYVNLIQELAPKYA (listed as Homo sapiens) [pep4]', 81.25),
  ('KYEKTLDLASVDLRKMRVAELKQILHSWGEECRACAEKTDYVNLIQELAP (listed as Homo sapiens) [pep7]', 76.67);

// for each sequence below, give its survived neurons as % compared to neurons grown in the presence of NGF
1. KYEKTLDLASVDLRKMRVAELKQILHSWGEECRACAEKTDYVNLIQELAPKYA (listed as Homo sapiens) [pep3]
2. VDLRKMRVAELKQILHSWGEECRACAEKTDYVNLIQELAPKYA (listed as Homo sapiens) [pep6]
3. TLDLASVDLRKMRVAELKQILHSWGEECRACAEKTDYVNLIQELAPKYAATHPKTEL (listed as Homo sapiens) [pep2]
4. VDLRKMRVAELKQILHSWGEECRACAEKTDYVNLIQELAPKYAATHPKTEL (listed as Homo sapiens) [pep5]

83.08
81.94
79.71
86.36
